# study.system: 11β-HSD2 (Ovis aries)
# Construct: incubating sheep kidney microsomal fraction (6.5 μg protein) with 50 nM corticosterone; from tissue; host or cells: sheep kidney microsomal fraction
# assay.details: 11β-HSD2 enzyme activity in sheep kidney microsomes
# Type: biochemical
reported.property: pIC50
pIC50 is defined as minus the log10 of a concentration measured in mol/L.

Example compounds with recorded pIC50:
{"compound": "C[C@]12CCC(=O)C[C@H]1CC[C@@H]1[C@H]2[C@@H](O)C[C@]2(C)[C@@H](C(=O)CO)CC[C@@H]12", "test.result": 6.82}
{"compound": "C[C@]12CC(=O)[C@@H]3[C@@H](CCC4=CC(=O)CC[C@@]43C)[C@H]1CC[C@@H]2O", "test.result": 5.87}
{"compound": "C[C@]12CC[C@@H](O)C[C@@H]1CC[C@@H]1[C@@H]2[C@@H](O)C[C@]2(C)[C@@H](O)CC[C@@H]12", "test.result": 5.35}

Item CC(=O)[C@H]1CC[C@@H]2[C@@H]3CCC4=CC(=O)CC[C@]4(C)[C@@H]3C(=O)C[C@]12C (stereo in doubt) was tested on 11β-HSD2 (Ovis aries); the reported pIC50 is 6.40

Item C[C@]12C[C@H](O)[C@@H]3[C@@H](CCC4=CC(=O)CC[C@@]43C)[C@H]1CC[C@@H]2O was tested on 11β-HSD2 (Ovis aries); the reported pIC50 is 6.46

Item C[C@]12CCC(=O)C=C1CC[C@@H]1[C@@H]2[C@@H](O)C[C@]2(C)C(=O)CC[C@@H]12 was tested on 11β-HSD2 (Ovis aries); the reported pIC50 is 5.11

====

# study.system: 11β-HSD1 Reductase (Rattus norvegicus, UniProt P16232)
# Sequence (P16232 whole entry): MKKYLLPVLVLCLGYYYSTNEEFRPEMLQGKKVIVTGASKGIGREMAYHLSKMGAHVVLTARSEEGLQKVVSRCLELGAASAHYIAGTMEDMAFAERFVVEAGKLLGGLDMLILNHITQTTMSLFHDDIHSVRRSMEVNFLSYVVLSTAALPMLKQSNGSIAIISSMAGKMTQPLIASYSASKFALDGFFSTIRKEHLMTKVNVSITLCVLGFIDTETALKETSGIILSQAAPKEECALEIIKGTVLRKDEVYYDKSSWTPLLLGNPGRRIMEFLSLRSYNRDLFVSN
# assay.details: 11β-HSD1 reductase assay in rat Leydig cell homogenates
Reported pIC50 values are given for each entry in this list.
pIC50 is defined as minus the log10 of a concentration measured in mol/L.

Example compounds with recorded pIC50:
{"compound": "C[C@]12CCC(=O)C=C1CC[C@@H]1[C@H]2C(=O)C[C@]2(C)C(=O)CC[C@H]12 (stereo in doubt)", "study.system": "11β-HSD1 Reductase (Rattus norvegicus, UniProt P16232)", "test.result": 4.68}
{"compound": "CC(=O)[C@H]1CC[C@H]2[C@@H]3CC[C@@H]4C[C@H](O)CC[C@]4(C)[C@H]3[C@@H](O)C[C@]12C", "study.system": "11β-HSD1 Reductase (Rattus norvegicus, UniProt P16232)", "test.result": 4.10}
{"compound": "C[C@]12CCC(=O)C[C@H]1CC[C@@H]1[C@H]2[C@@H](O)C[C@]2(C)[C@@H](C(=O)CO)CC[C@@H]12", "study.system": "11β-HSD1 Reductase (Rattus norvegicus, UniProt P16232)", "test.result": 5.20}
{"compound": "C[C@]12CC[C@@H](O)C[C@@H]1CC[C@@H]1[C@@H]2C(=O)C[C@@]2(C)[C@H]1CC[C@]2(O)C(=O)CO", "study.system": "11β-HSD1 Reductase (Rattus norvegicus, UniProt P16232)", "test.result": 5.37}
{"compound": "C[C@]12CC(=O)[C@@H]3[C@@H](CCC4=CC(=O)CC[C@@]43C)[C@H]1CC[C@@H]2O", "study.system": "11β-HSD1 Reductase (Rattus norvegicus, UniProt P16232)", "test.result": 4.74}

Continue with the next compound.
Item C[C@]12CC[C@@H](O)C[C@H]1CC[C@@H]1[C@H]2C(=O)C[C@]2(C)[C@@H](C(=O)CO)CC[C@@H]12 [3α,5α-TH-11-dehydrocorticosterone, 5α-Pregnan-3α,21-diol-11,20-dione] was tested on 11β-HSD1 Reductase (Rattus norvegicus, UniProt P16232); the reported pIC50 is 6.15

====

# study.system: 11β-HSD1 Reductase (Rattus norvegicus, UniProt P16232)
# assay.details: 11β-HSD1 reductase assay in rat Leydig cell homogenates;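 also: rat Leydig cell homogenate incubated 20 min at 37 °C, pH 7.4, with tritiated 11-dehydro-corticosterone and 3 mM NADPH, product measured by HPLC, inhibition from triplicate dose–response curves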
# condition.notes: read-out: Leydig Cell 11β-HSD1 Reductase [S] = 600 nM; rat Leydig cell homogenates, 600 nM 11-dehydro-corticosterone; progesterone and androgen derivatives
reported.property: IC50

Example molecules with recorded IC50:
{"smiles.structure": "C[C@]12CC[C@@H](O)C[C@H]1CC[C@@H]1[C@@H]2C(=O)C[C@]2(C)C(=O)CC[C@@H]12", "IC50": "> 100 µM"}
{"smiles.structure": "C[C@]12CC[C@H](O)C[C@@H]1CC[C@H]1[C@@H]3CC[C@H](O)[C@@]3(C)CC(=O)[C@@H]12", "IC50": "0.65 µM"}
{"smiles.structure": "CC(=O)[C@H]1CC[C@H]2[C@@H]3CC[C@H]4C[C@H](O)CC[C@]4(C)[C@H]3[C@@H](O)C[C@]12C", "IC50": "> 100 µM"}

Continue with the next molecule.
Recorded result, C[C@]12CC[C@@H](O)C[C@H]1CC[C@@H]1[C@@H]2[C@@H](O)C[C@]2(C)C(=O)CC[C@@H]12 , IC50: > 100 µM

====

# study.system: 11β-HSD1 Dehydrogenase (Rattus norvegicus)
# assay.details: 11β-HSD1 dehydrogenase assay in rat Leydig cell homogenates
# Type: biochemical
# Set-up: Freshly prepared rat Leydig cell homogenates were chosen since they provide a rich and reliable source of both 11β-HSD1 dehydrogenase and reductase; from tissue; host or cells: rat testicular Leydig cells, homogenate
reported.property: pIC50
pIC50 is defined as minus the log10 of a concentration measured in mol/L.

{"smiles.structure": "C[C@]12CCC(=O)C[C@H]1CC[C@@H]1[C@H]2[C@@H](O)C[C@]2(C)[C@@H](C(=O)CO)CC[C@@H]12", "test.result": 5.68}

Continue with the next compound.
Recorded result, C[C@]12C[C@H](O)[C@@H]3[C@@H](CCC4=CC(=O)CC[C@@]43C)[C@H]1CC[C@@H]2O , pIC50: 5.05

====

Reported pIC50 values are given for each entry in this list.
# study.system: 11β-HSD1 Dehydrogenase (Rattus norvegicus, UniProt P16232)
# Sequence (P16232 whole entry): as above
# assay.details: 11β-HSD1 dehydrogenase assay in rat Leydig cell homogenates;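 also: tritiated corticosterone conversion by 11β-HSD1 dehydrogenase in Leydig homogenates with 3 mM NADP at pH 8.4, 37 °C for 10 min, products resolved by HPLC, inhibition relative to uninhibited enzyme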
# Type: biochemical
# Set-up: Freshly prepared rat Leydig cell homogenates were chosen since they provide a rich and reliable source of both 11β-HSD1 dehydrogenase and reductase; from tissue; host or cells: rat testicular Leydig cells, homogenate
# condition.notes: rat Leydig cell homogenates, 600 nM corticosterone, NADP; corticosteroid series; read-out: Leydig Cell 11β-HSD1 Dehydrogenase [S]= 600 nM
pIC50: −log10 of the molar value.

Example compounds with recorded pIC50:
{"compound": "C[C@]12CC[C@@H](O)C[C@H]1CC[C@@H]1[C@H]2C(=O)C[C@]2(C)[C@@H](C(=O)CO)CC[C@@H]12 [3α,5α-TH-11-dehydrocorticosterone, 5α-Pregnan-3α,21-diol-11,20-dione]", "pIC50": 5.10}
{"compound": "C[C@]12CC(=O)[C@H]3[C@@H](CCC4=CC(=O)CC[C@@]43C)[C@@H]1CC[C@@H]2C(=O)CO [11-dehydro-corticosterone]", "pIC50": "< 4.00"}

Continue with the next compound.
Recorded result, C[C@]12CC[C@@H](O)C[C@H]1CC[C@@H]1[C@@H]2[C@@H](O)C[C@]2(C=O)[C@@H](C(=O)CO)CC[C@@H]12 [3α,5β-TH-Aldosterone, 5β-Pregnan-3α,11β,21-triol-20-one-18-al] , pIC50: < 4.00

====

# study.system: 11β-HSD2 (Ovis aries)
# Construct: incubating sheep kidney microsomal fraction (6.5 μg protein) with 50 nM corticosterone; from tissue; host or cells: sheep kidney microsomal fraction
# Sequence (P50168 1-427): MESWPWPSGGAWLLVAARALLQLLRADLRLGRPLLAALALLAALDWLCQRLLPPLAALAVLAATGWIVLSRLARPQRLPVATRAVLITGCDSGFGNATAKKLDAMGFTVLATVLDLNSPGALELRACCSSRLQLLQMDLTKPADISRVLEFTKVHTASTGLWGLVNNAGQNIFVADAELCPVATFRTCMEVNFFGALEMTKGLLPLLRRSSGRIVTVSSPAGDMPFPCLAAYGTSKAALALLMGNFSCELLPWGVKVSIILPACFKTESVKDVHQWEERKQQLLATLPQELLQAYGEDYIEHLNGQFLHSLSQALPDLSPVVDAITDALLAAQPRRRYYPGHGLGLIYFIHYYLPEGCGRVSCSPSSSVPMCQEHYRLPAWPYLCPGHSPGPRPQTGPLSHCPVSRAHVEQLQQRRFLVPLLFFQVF
# assay.details: 11β-HSD2 enzyme activity in sheep kidney microsomes
# Format: biochemical
# condition.notes: 11β-HSD2, sheep kidney microsomes, 50 nM corticosterone, NAD+; aldosterone, cortisol, corticosterone series; read-out: Dehydrogenase [S] = 50 nM
reported.property: IC50 (µM)
Numeric answer only, unit µM assumed.

{"molecule": "C[C@]12CC(=O)[C@H]3[C@@H](CCC4=CC(=O)CC[C@@]43C)[C@@H]1CC[C@@H]2C(=O)CO [11-dehydro-corticosterone]", "IC50 / µM": 0.47}

Continue with the next molecule.
Recorded result, C[C@]12CC[C@@H](O)C[C@@H]1CC[C@@H]1[C@@H]2[C@@H](O)C[C@@]2(C)[C@H]1CC[C@]2(O)C(=O)CO [3α,5α-TH-Cortisol, 5α-Pregnan-3α,11β,17α,21-tetrol-20-one] , IC50: 8
